# credit: PubChem BioAssay AID1159580

# measurement.protocol: chemical genetic growth profiling, strain panel (AID 1159580);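 further: tested at 20 µM; growth read once vehicle control cultures reached saturation at 30 °C; 1 = growth at the plate median or of vehicle wells; lower values mean less growth of the strain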
# test.context: S. cerevisiae deletion strains, growth OD, locus YCL069W, strain vba3, hits give low values
Out of some 5,500 compounds screened, about 2,000 (36%) were called active. About 18% were inconclusive and are not listed. This is one part of the list.
I'd appreciate it if you could supply normalized growth values for the items below.
// no unit, no text: just the number

Any idea what normalized growth was measured for C=CCSSSCC=C ?
0.973

Endpoint output: normalized growth of O=C(O)C1=CC(=C(c2ccc(O)c(C(=O)O)c2)c2ccc(O)c(C(=O)O)c2)C=CC1=O . Value?
0.972

Entry NCCCN has what normalized growth?
0.973

Record request: normalized growth value, item CC(C)Nc1nc(Cl)nc(NC(C)C)n1
1.01

Recorded normalized growth for CC1=C2C(O)C(=O)OC3CC4C(C)(C)C(=O)C=C[C@]4(C)C(CC1)[C@]23C (stereo partly drawn) , please?
1

For the molecule COC(=O)CC1C(C)(C)C(OC(C)=O)[C@@H]2[C@@H](OC(C)=O)[C@]34O[C@@]2(O)[C@]1(C)C3CC[C@]1(C)C4=CC(=O)O[C@H]1c1ccoc1 (stereo partly drawn) , what normalized growth is on record?
1.01

normalized growth for CCCc1nc(C)c2c(=O)[nH]c(-c3cc(S(=O)(=O)N4CCN(CC)CC4)ccc3OCC)nn12 ?
0.988

normalized growth for Cc1ncc(CO)c(CO)c1O ?
1.04

// lookup normalized growth for COc1nc(NC(C)C)nc(NC(C)C)n1
1.01

Requested field: normalized growth. Item: C=CCSSCC=C
1.03

I'd like to know its normalized growth. The molecule in question is CC(=O)OC1CC[C@@]2(C)C(CCC3C2CC[C@]2(C)C(C4=CC(=O)OC4)C(OC(C)=O)CC32O)C1 (stereo partly drawn)
0.999

I have this molecule here, CC1(C)[C@@H]2CC[C@@]1(C)C(=O)C2 , and I need its recorded normalized growth.
1.02

Could you share which normalized growth value was measured for C=CCSC[C@@H](N)C(=O)O ?
0.99
